biological target: TYK2 (Homo sapiens); construct: 5 μl of catalytic domain recombinant Kinase enzyme+Tyr peptide substrate (Invitrogen, CA); experiment: Z'-LYTE kinase assay TYK2
Sequence (P29597 897-1176 limits assumed): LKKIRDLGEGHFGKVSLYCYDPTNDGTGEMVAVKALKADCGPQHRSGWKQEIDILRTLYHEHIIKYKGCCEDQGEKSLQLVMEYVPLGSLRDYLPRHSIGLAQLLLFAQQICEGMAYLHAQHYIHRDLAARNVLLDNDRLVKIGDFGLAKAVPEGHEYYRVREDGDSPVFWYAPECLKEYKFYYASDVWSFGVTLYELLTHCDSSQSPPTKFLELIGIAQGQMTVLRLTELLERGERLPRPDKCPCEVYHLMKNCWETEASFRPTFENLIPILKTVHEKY
pIC50: −log10 of the molar value.
Form field: pIC50 (one value per entry).
measurement-label: pIC50

compound | measurement-label | experimental-result
CCC(=O)N1CCC(c2ccc(Nc3cc(NCc4cc(F)cc(F)c4)c(C(N)=O)cn3)cc2)CC1 [Example 195] | pIC50 | < 6.00
NC(=O)c1cnc(Nc2ccc(OC(F)(F)F)cc2)cc1NCc1cccc2[nH]ccc12 [Example 322] | pIC50 | < 6.00
CN(C)C(=O)c1cccc(Nc2cc(NCc3ccccc3)c(C(N)=O)cn2)c1 [Example 247] | pIC50 | 6.00 to 7.00
NC(=O)c1cnc(Nc2ccc(N3CCCC3=O)c(Cl)c2)cc1NCc1cccc(F)c1 [Example 62] | pIC50 | < 6.00
NC(=O)c1cnc(Nc2ccc(N3CCCCC3=O)cc2)cc1NCc1cccc(F)c1 [Example 64] | pIC50 | 6.00 to 7.00
CC(=O)N1CCN(c2ccc(Nc3cc(NCC4CC4)c(C(N)=O)cn3)cc2)CC1 [Example 238] | pIC50 | 6.00 to 7.00
NC(=O)c1cnc(Nc2ccc(C3CCN(C(=O)C4CCOCC4)CC3)cc2)cc1NCc1ccccc1F [Example 119] | pIC50 | 6.00 to 7.00
CC(=O)N1CCN(c2ccc(Nc3cc(NC(C)C)c(C(N)=O)cn3)cc2)CC1 [Example 234] | pIC50 | 6.00 to 7.00
NC(=O)c1cc(F)c(Nc2cccc(-n3nccn3)c2)nc1N [Example 24] | pIC50 | < 6.00
NC(=O)c1cnc(Nc2cccc(C(=O)N3CCCCC3)c2)cc1NCc1ccccc1 [Example 249] | pIC50 | < 6.00
Cc1cc(Nc2cc(NCc3cccc4cc[nH]c34)c(C(N)=O)cn2)ccc1C(=O)N1CCCC1 [Example 464] | pIC50 | < 6.00
NC(=O)c1cnc(Nc2ccc(N3CCOCC3)cc2)cc1Nc1ccc(N2CCOCC2)cc1 [Example 16] | pIC50 | < 6.00
CN(C)C(=O)c1ccc(Nc2cc(NCc3ccccc3)c(C(N)=O)cn2)cc1 [Example 248] | pIC50 | 6.00 to 7.00
NC(=O)c1cnc(Nc2ccc(N3CCOCC3)c(Cl)c2)cc1NCc1ccccc1 [Example 251] | pIC50 | < 6.00
NC(=O)c1cnc(Nc2ccc(OCC(=O)N3CCOCC3)cc2)cc1NCc1ccccc1 [Example 80] | pIC50 | < 6.00
NC(=O)c1cnc(Nc2ccccc2)cc1NCc1ccccc1 [Example 9] | pIC50 | < 6.00
COCCOc1ccc(Nc2cc(NCc3ccccc3)c(C(N)=O)cn2)cc1 [Example 432] | pIC50 | < 6.00

Taken from patent US20150353495A1.
